All values here come from patent US10065928B2.

METHOD DESCRIPTION: Pharmacokinetic assay in male SD rats (iv and oral)
Assay type: in vivo
SETUP CONDITIONS: rat, plasma, po, 5 mg/kg
PROPERTY MEASURED: half-life (h)

Consider the worked cases shown below.
Cn1c(=O)c(C(=O)NCC(=O)O)c(O)c2ccc(Oc3ccccc3)cc21 : 4.2
Cn1c(=O)c(C(=O)NCC(=O)O)c(O)c2ccc(Oc3ccc(F)cc3)cc21 : 2.64
Cn1c(=O)c(C(=O)NCC(=O)O)c(O)c2ccc(Oc3cc(Cl)ccc3F)cc21 : 2.79

1: Cn1c(=O)c(C(=O)NCC(=O)O)c(O)c2ccc(Oc3ccc(Cl)cc3)cc21
2: Cn1c(=O)c(C(=O)NCC(=O)O)c(O)c2ccc(Oc3cc(F)ccc3F)cc21
Query :: Could you check which of 1 and 2 has a smaller value for half-life? Mark your answer with the label of the selected entry.
Result :: 2
(2: 1.4 h, 1: 4.23 h)
